- System: MDA-MB-468
- measurementProtocol: phospho-S6 immunofluorescence (DAPI-normalised), per-plate z-score; higher = higher phospho-S6 signal (less pathway suppression)
- testParameters: co-treatment: vehicle; 24 h
Counter-ions that a name gives are not always drawn.
phospho-S6 immunofluorescence (z-score) values, listed per item
measurementType: phospho-S6 immunofluorescence (z-score)

1. CN(C)N(C)C(=O)[C@@]1(Cc2ccccc2)CCCN(C(=O)[C@@H](Cc2c[nH]c3ccccc23)NC(=O)C(C)(C)N)C1 [Anamorelin] (compound 10 µM) : 0.4
2. c1cc(CN2CCCNCCNCCCNCC2)ccc1CN1CCCNCCNCCCNCC1 [Plerixafor] (compound 10 µM) : 0.2
3. CCc1cc(-c2noc(-c3cc(OC)nc(C4CCCC4)c3)n2)cc(C)c1OC[C@@H](O)CO [Cenerimod] (compound 10 µM) : -4.14
4. CCNC(=O)[C@@H]1CCCN1C(=O)[C@H](CCCNC(=N)N)NC(=O)[C@H](CC(C)C)NC(=O)[C@@H](CC(C)C)NC(=O)[C@H](Cc1ccc(O)cc1)NC(=O)[C@H](CO)NC(=O)[C@H](Cc1c[nH]c2ccccc12)NC(=O)[C@H](Cc1c[nH]cn1)NC(=O)[C@@H]1CCC(=O)N1 [Leuprolide (Acetate)] (compound 10 µM) : 0.11
5. Cc1nccn1CCC(C(N)=O)(c1ccccc1)c1ccccc1 [Imidafenacin] (compound 10 µM) : 0.28
6. COc1cc2c(cc1OC)CC(=O)N(CCCN(C)C[C@H]1Cc3cc(OC)c(OC)cc31)CC2 [Ivabradine (hydrochloride)] (compound 10 µM) : -0.38
7. Nc1nc(N)nc(-c2cc(Cl)ccc2Cl)n1 [Irsogladine] (compound 10 µM) : -1.11
8. O=C(Nc1ccccc1)C12CC1C(=NO)c1ccccc1O2 (stereo not drawn) (compound 10 µM) : 0.75
9. CCN(CC)CC#CCOC(=O)C(O)(c1ccccc1)C1CCCCC1 (stereo not drawn) [Oxybutynin (chloride)] (compound 10 µM) : 0.53
10. COc1cc(C(=O)N(CCCc2ccccc2)Cc2ccc(CC(=O)O)cc2)cc(OC)c1C (compound 10 µM) : -0.17
11. CCCCC(C)(O)C/C=C/[C@H]1[C@H](O)CC(=O)[C@@H]1CCCCCCC(=O)OC (mixture of isomers) [Misoprostol] (compound 10 µM) : 1.59
12. Cc1c(C(=O)NN2CCCCC2)nn(-c2ccc(Cl)cc2Cl)c1-c1ccc(Cl)cc1 [Rimonabant (Hydrochloride)] (compound 10 µM) : -5.97
13. CN1CCN(C2=Nc3cc(Cl)ccc3Nc3ccccc32)CC1 [Clozapine] (compound 10 µM) : -0.32

These measurements were taken from the supplement of paper PMC7411640.
